tgt: porcine gastric H+/K+-ATPase (Sus scrofa, UniProt P19156)
Construct: The gastric vesicles were collected from interface on 0.25 M sucrose layer containing 7% Ficoll
Sequence (P19156 2-1034 limits assumed): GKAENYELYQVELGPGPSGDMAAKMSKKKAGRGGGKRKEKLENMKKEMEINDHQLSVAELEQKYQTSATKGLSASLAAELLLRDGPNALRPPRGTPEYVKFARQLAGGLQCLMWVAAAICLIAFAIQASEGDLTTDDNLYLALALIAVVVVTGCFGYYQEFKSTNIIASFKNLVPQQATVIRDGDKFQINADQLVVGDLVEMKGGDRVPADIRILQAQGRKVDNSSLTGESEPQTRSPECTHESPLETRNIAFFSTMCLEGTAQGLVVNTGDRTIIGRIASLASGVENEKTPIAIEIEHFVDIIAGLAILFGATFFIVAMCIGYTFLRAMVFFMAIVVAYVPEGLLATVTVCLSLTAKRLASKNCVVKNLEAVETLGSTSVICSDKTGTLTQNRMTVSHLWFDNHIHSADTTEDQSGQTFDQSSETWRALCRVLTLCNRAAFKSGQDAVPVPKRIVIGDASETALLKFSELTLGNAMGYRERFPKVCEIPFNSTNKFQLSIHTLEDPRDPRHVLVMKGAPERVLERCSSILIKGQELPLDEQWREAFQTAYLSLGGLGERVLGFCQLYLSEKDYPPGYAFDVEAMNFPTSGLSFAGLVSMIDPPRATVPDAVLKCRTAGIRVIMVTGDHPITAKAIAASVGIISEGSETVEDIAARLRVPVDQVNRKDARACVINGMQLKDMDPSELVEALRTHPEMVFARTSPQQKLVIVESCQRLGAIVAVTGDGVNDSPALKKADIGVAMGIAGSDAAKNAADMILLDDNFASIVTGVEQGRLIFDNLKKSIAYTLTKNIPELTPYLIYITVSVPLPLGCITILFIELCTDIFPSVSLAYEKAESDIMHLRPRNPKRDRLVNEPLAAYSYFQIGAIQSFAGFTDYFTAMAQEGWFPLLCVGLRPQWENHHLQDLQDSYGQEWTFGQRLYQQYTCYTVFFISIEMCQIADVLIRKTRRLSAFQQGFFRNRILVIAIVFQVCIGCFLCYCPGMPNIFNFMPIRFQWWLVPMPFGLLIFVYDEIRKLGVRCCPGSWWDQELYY
Sequence (P18434 whole entry partner): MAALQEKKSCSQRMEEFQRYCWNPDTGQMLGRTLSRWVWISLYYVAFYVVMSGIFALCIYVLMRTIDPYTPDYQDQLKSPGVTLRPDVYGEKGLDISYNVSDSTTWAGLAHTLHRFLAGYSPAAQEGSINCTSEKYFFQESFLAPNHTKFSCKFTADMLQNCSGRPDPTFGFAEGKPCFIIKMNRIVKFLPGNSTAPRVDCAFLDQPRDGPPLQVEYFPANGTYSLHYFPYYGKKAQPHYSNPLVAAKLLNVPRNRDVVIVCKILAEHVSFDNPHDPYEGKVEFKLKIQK
assay-method-text: Ion-leaky porcine gastric H+/K+-ATPase inhibition
measurement-parameters: ion-leaky lyophilized porcine gastric vesicles, 5 mM KCl, pH 6.4, 37° C., 30 minutes; read-out: IC50 values of the inhibitory activity
Experimental: The porcine gastric vesicles for Porcine gastric H^+/K^+-ATPase inhibition assays were prepared from mucous membrane in fresh porcine stomachs by homogenization with a tight-fitted polytetrafluoroethylene (Teflone®) homogenizer in 0.25 M sucrose at 4° C. The crude pellet was removed with centrifugation at 20,000 g for 30 min. […] Ion-leaky porcine gastric H^+/K^+-ATPase inhibition was measured according to the modified method described in Biochemical Pharmacology, 1988, 37, 2231-2236. […]
measured-endpoint: pIC50
Please report pIC50 as the negative decimal logarithm of the molar concentration, giving only the number.

COCCn1c(C)nc2cc(C(=O)N(C)CCO)c3c(c21)OC(c1ccc(F)cc1F)CC3 (racemic) [Example 11] = 6.68

Ask | // Input: COCCn1c(C)nc2cc(C(=O)N(C)C)c3c(c21)OC(c1ccccc1)CC3 (single isomer, unassigned; (-)) [Example 3] . Output its pIC50 only.
Reply | 7.17

Ask | Identify measured pIC50 corresponding to [2H]C([2H])([2H])N(C(=O)c1cc2nc(C)n(CCOC)c2c2c1CCC(c1ccccc1)O2)C([2H])([2H])[2H] (stereo not drawn)
Reply | 7.00

###

compounds and their reported pIC50
tgt: porcine gastric H+/K+-ATPase (Sus scrofa)
Construct: The gastric vesicles were collected from interface on 0.25 M sucrose layer containing 7% Ficoll; from tissue; host or cells: mucous membrane of fresh porcine stomachs (gastric vesicles)
assay-method-text: Ion-leaky porcine gastric H+/K+-ATPase inhibition
Format: biochemical
measurement-parameters: ion-leaky lyophilized porcine gastric vesicles, 5 mM KCl, pH 6.4, 37° C., 30 minutes; read-out: IC50 values of the inhibitory activity
The scale used: pIC50 is minus the common logarithm of the concentration in molar units.

Ask | Please list pIC50 recorded for the compound COCCn1c(C)nc2cc(C(=O)N(C)CCO)c3c(c21)OC(c1ccc(F)cc1F)CC3 (single isomer, unassigned; (-)) [Example 12]
Reply | 7.05

###

Each item that follows carries a reported pIC50.
tgt: porcine gastric H+/K+-ATPase (Sus scrofa, UniProt P19156)
Construct: The gastric vesicles were collected from interface on 0.25 M sucrose layer containing 7% Ficoll
assay-method-text: Ion-leaky porcine gastric H+/K+-ATPase inhibition
measurement-parameters: ion-leaky lyophilized porcine gastric vesicles, 5 mM KCl, pH 6.4, 37° C., 30 minutes; read-out: IC50 values of the inhibitory activity
Friendly reminder that pIC50 comes from taking -log10 of the concentration in mol/L.

Cc1nc2cc(C(=O)N(C)C)c3c(c2n1CCCO)OC(c1ccc(F)cc1)CC3 (stereo not shown) [Example 8] = 6.47

Ask | Entry COCCn1c(C)nc2cc(C(=O)N(C)C)c3c(c21)OC(c1ccccc1)CC3 (single isomer, unassigned; (+)) [Example 2] needs its pIC50 filled in; supply it.
Reply | 6.28

Ask | Check the records and state pIC50 for COCCn1c(C)nc2cc(C(=O)N(C)CCO)c3c(c21)OC(c1ccccc1)CC3 (stereo not shown) [Example 4]
Reply | 6.72

Ask | Respond only with pIC50 recorded for COCCn1c(C)nc2cc(C(=O)N3CCC3)c3c(c21)OC(c1ccccc1)CC3 (racemic) [Example 15]
Reply | 6.70

Ask | Tell me its pIC50 given COCCn1c(C)nc2cc(C(=O)N3CC(F)C3)c3c(c21)OC(c1ccccc1)CC3 (stereo not shown) [Example 14] as the entry.
Reply | 6.57

Ask | Complete the entry with pIC50 for COCCn1c(C)nc2cc(C(=O)N3CCC3)c3c(c21)OC(c1ccccc1)CC3 (single isomer, unassigned; (-)) [Example 16]
Reply | 7.13

Ask | Give recorded pIC50. Cc1nc2cc(C(=O)N(C)C)c3c(c2n1Cc1ccon1)OC(c1ccc(F)cc1)CC3 (stereo not shown) [Example 9]
Reply | 6.46

Ask | Supply pIC50 value. Item: COCCn1c(C)nc2cc(C(=O)N(C)CCO)c3c(c21)OC(c1ccc(F)cc1F)CC3 (single isomer, unassigned; (+)) [Example 13]
Reply | 6.47

Ask | Quick one: give measured pIC50 for COCCn1c(C)nc2cc(C(=O)N(C)C)c3c(c21)OC(c1ccccc1)CC3 (racemic) [Example 1]
Reply | 7.01

Ask | Give the reported pIC50 for this compound. COCCn1c(C)nc2cc(C(=O)N(C)C)c3c(c21)OC(c1ccc(F)cc1)CC3 (single isomer, unassigned; (-)) [Example 7]
Reply | 7.42

Ask | Item COCCn1c(C)nc2cc(C(=O)N(C)C)c3c(c21)OC(c1ccc(F)cc1)CC3 (single isomer, unassigned; (+)) [Example 6] : provide pIC50
Reply | 6.64

Ask | Let me know recorded pIC50 for COCCn1c(C)nc2cc(C(=O)N(C)C)c3c(c21)OC(c1ccc(F)cc1)CC3 (racemic) [Example 5] , thanks.
Reply | 7.06

Ask | For the compound COCCn1c(C)nc2cc(C(=O)N3CCC3)c3c(c21)OC(c1ccccc1)CC3 (single isomer, unassigned; (+)) [Example 17] , give its reported pIC50.
Reply | 6.00
